Consider the following molecules; for each one, report its inhibition at 25 µM.
- System: Enterovirus
- assay-text: Antiviral activity against EV71 infected in human RD cells assessed as inhibition of virus-induced cell death at 25 uM incubated for 48 hrs by MTT assay relative to control
- Assay type: functional
- cond: Enterovirus, 71, RD
Numbers only, in %.

Known inhibition at 25 µM results, listed for orientation:
{"molecule": "COc1cc(CNC(=O)C23CCC(=O)N2c2ccccc2C(=O)N3)ccc1O (centres undefined)", "target-or-test-system": "Enterovirus", "inhibition at 25 µM [%]": 64.3}
{"molecule": "CN1C(=O)c2ccccc2N2C(=O)CCC12C(=O)NCCS(C)(=O)=O (centres undefined)", "target-or-test-system": "Enterovirus", "inhibition at 25 µM [%]": 33}
{"molecule": "COC(=O)C(CCSC)NC(=O)C12CCC(=O)N1c1ccccc1C(=O)N2 (centres undefined)", "target-or-test-system": "Enterovirus", "inhibition at 25 µM [%]": 6.1}
{"molecule": "CN1C(=O)c2ccccc2N2C(=O)CCC12C(=O)NCCc1c[nH]c2ccccc12 (centres undefined)", "target-or-test-system": "Enterovirus", "inhibition at 25 µM [%]": 33}

Provide reported inhibition at 25 µM for each item, in the same order as listed.
1. CSCCNC(=O)C12CCC(=O)N1c1ccccc1C(=O)N2C (centres undefined)
2. COC(=O)C(CCSC)NC(=O)C12CCC(=O)N1c1ccc(Cl)cc1C(=O)N2 (centres undefined)
3. O=C1NC2(C(=O)NCCc3c[nH]c4ccccc34)CCC(=O)N2c2ccccc21 (centres undefined)

Result:
[6.6, 50.3, 64.1]

Provide reported inhibition at 25 µM for each item, in the same order as listed.
1. COc1cc(CNC(=O)C23CCC(=O)N2c2ccc(Cl)cc2C(=O)N3)ccc1O (centres undefined)
2. CSCCNC(=O)C12CCC(=O)N1c1ccccc1C(=O)N2 (centres undefined)

Result:
67.5
5.7
